Assay: folding stability dG unfold (combined trypsin and chymotrypsin); higher = more stable
OUTCOME MEASURE: folding stability dG unfold (kcal/mol)
One number for each entry, in kcal/mol.

SEQ TEXT	UNIT ANNOTATION	folding stability dG unfold
SAGGSAGGMYTVIEEEFTFPPSNPDVVIEVEYPDLPDSYTITQSTFPEGDTYHVRVTITVPPNLSAGGSAGG [r6_482_JUSTAS]	kcal/mol	0.605

Provide reported folding stability dG unfold for each item, in the same order as listed.
1. SAGGSAGGSAGGKKIIKVPLKNAEKIKKELKKKYKIKKVKIEKNKDGSKYIYIEVEKPKSAGGSAGGSAGGS [r10_1219_TrROS_Hall]
2. SAGGSAPKIRVEIEIDPDNGTIKLEVQHDGKPVFEMTMRIDPNGKIKEMKFTFYVDPDNGKLEIMMSAGGSA [r15_770_TrROS]
3. SAGGSAGGSMKVEITKVEPETGPNGRPYYRVEVKVIGEDGSPYTFTFYFEKPSDIENAKISLDSAGGSAGGS [r20_130_TrMRF]
4. SAGGSAGGSAGGNIEVLPIPDGYWVIKIPDGRIMVFNPGRGEFEPIPIENVTIEPVRPGDSAGGSAGGSAGG [r7_656_TrROS]
5. SAGMTTTVTLKAPDGTTATVTIPPDGNAVMTIETPEGTSTRTVPVPADVSIEEILKEYPNYTIVSREAASAG [r5_259_JUSTAS]
6. SAGGSAKTKTITLKIKIVDPKTNKVYEFEIKIEVELTLDKNGKLTAKIKKIEIKAPKNSPLLKKLLSAGGSA [r15_258_TrROS_Hall]

### Response
1: 1.5; 2: 4.43; 3: 3.5; 4: 0.783; 5: 1.82; 6: 2.68

Origin of values: the supplement of paper PMC12764529
